The values you see were collected from patent US20230295200A1.

# target-system: STAT6 protein (Homo sapiens)
# test-method-notes: Fluorescence polarization (FP) binding assay, STAT6
# details: FP competition, 5 nM fluorescein-labeled tracer, 200 nM protein, PBS pH7.4; read-out: Binding STAT6
This section presents compounds with their documented Ki values.

Illustrative cases are given below, each with its answer.
[
  {
    "compound": "CC(C)(C)[C@H](NC(=O)c1cc2cc(C(F)(F)P(=O)(O)O)ccc2s1)C(=O)N1Cc2ccccc2C1C(=O)N1CCO[C@H](c2ccccc2)C1 (some centres unmarked)",
    "Ki": "0.1 to 1 µM"
  },
  {
    "compound": "CC(=O)N1CC[C@H]2CC[C@@H](C(=O)N3CCCCC4(CCCC4)C3)N2C(=O)[C@@H](NC(=O)c2cc3cc(C(F)(F)P(=O)(O)O)ccc3s2)C1",
    "Ki": "> 10 µM"
  },
  {
    "compound": "CC(=O)N1CC[C@H]2CC[C@@H](C(=O)N(Cc3ccccc3)C3CCCCC3)N2C(=O)[C@@H](NC(=O)c2cc3cc(C(F)(F)P(=O)(O)O)ccc3[nH]2)C1",
    "Ki": "1 to 10 µM"
  },
  {
    "compound": "O=C(N[C@@H](CC1CCN(CC2CCCCC2)CC1)C(=O)N1CCC[C@H]1C(=O)N1CCO[C@H](c2ccccc2)C1)c1cc2cc(C(F)(F)P(=O)(O)O)ccc2s1",
    "Ki": "0.1 to 1 µM"
  }
]

Turning to the following compound.
Given the compound CC(=O)N1CC[C@H]2CC[C@@H](C(=O)N3CCc4ccc(C)cc4C3)N2C(=O)[C@@H](NC(=O)c2cc3cc(C(F)(F)P(=O)(O)O)ccc3[nH]2)C1 , what is its reported Ki?
> 10 µM

----------
This section presents compounds with their documented pKi values.
# target-system: STAT6 protein (Homo sapiens, UniProt P42226)
# test-method-notes: Fluorescence polarization (FP) binding assay, STAT6
# details: FP competition, 5 nM fluorescein-labeled tracer, 200 nM protein, PBS pH7.4; read-out: Binding STAT6
pKi: −log10 of the molar value.

[
  {
    "compound": "CN(C)CC[C@H](NC(=O)c1cc2cc(C(F)(F)P(=O)(O)O)ccc2s1)C(=O)N1CCC[C@H]1C(=O)N1CCO[C@H](c2ccccc2)C1",
    "test-result": "6.00 to 7.00"
  }
]

Given the compound CC(C)(C)[C@H](NC(=O)c1cc2cc(C(F)(F)P(=O)(O)O)ccc2s1)C(=O)N1Cc2ccccc2CC1C(=O)N1CC[C@H](c2ccccc2)C1 (some centres unmarked) , what is its reported pKi?
5.00 to 6.00

What do you get for CC(=O)N1CC[C@H]2CC[C@@H](C(=O)NC3(c4ccccc4)CCOCC3)N2C(=O)[C@@H](NC(=O)c2cc3cc(C(F)(F)P(=O)(O)O)ccc3[nH]2)C1 ?
5.00 to 6.00

What do you get for CCOC(=O)CO[C@H]1C[C@@H](C(=O)N(CCC(=O)NC)c2ccc(Br)cc2)N(C(=O)[C@@H](NC(=O)c2cc3cc(C(F)(F)P(=O)(O)O)ccc3s2)C(C)(C)C)C1 ?
6.00 to 7.00

What do you get for CC(C)(C)[C@H](NC(=O)c1cc2cc(C(F)(F)P(=O)(O)O)ccc2s1)C(=O)N1CCC[C@H]1C(=O)N1CCC2(CCCC2)C1 ?
5.00 to 6.00

What do you get for CC(C)(C)[C@H](NC(=O)c1ccc2cc(C(F)(F)P(=O)(O)O)ccc2c1)C(=O)N1CCC[C@H]1C(=O)N1CCO[C@H](c2ccccc2)C1 ?
6.00 to 7.00

----------
# target-system: UniProt:P42226
# test-method-notes: Fluorescence polarization (FP) binding assay, STAT6
# details: FP competition, 5 nM fluorescein-labeled tracer, 200 nM protein, PBS pH7.4; read-out: Binding STAT6
This section presents compounds with their documented Ki values.

Illustrative cases are given below, each with its answer.
[
  {
    "compound": "CC(=O)N1CC[C@H]2CC[C@@H](C(=O)N3CCOC(C)(c4ccc(Cl)cc4)C3)N2C(=O)[C@@H](NC(=O)c2cc3cc(C(F)(F)P(=O)(O)O)ccc3s2)C1 (some centres unmarked)",
    "Ki": "1000 to 10000 nM"
  },
  {
    "compound": "CC(=O)N1CC[C@H]2CC[C@@H](C(=O)Nc3ncc(-c4ccccc4)s3)N2C(=O)[C@@H](NC(=O)c2cc3cc(C(F)(F)P(=O)(O)O)ccc3s2)C1",
    "Ki": "1000 to 10000 nM"
  },
  {
    "compound": "CC(=O)N1CC[C@H]2CC[C@@H](C(=O)N3CCC[C@H](c4ccccc4)C3)N2C(=O)[C@@H](NC(=O)c2cc3cc(C(F)(F)P(=O)(O)O)ccc3s2)C1",
    "Ki": "100 to 1000 nM"
  },
  {
    "compound": "CC(=O)N1CC[C@H]2CC[C@@H](C(=O)N3Cc4ccccc4C3)N2C(=O)[C@@H](NC(=O)c2cc3cc(C(F)(F)P(=O)(O)O)ccc3[nH]2)C1",
    "Ki": "100 to 1000 nM"
  }
]

Given the compound CC(C)(C)[C@H](NC(=O)c1cc2cc(C(F)(F)P(=O)(O)O)ccc2s1)C(=O)N1CCC[C@H]1C(=O)N1CCCC12CCCC2 , what is its reported Ki?
1000 to 10000 nM

----------
# target-system: STAT6 protein (Homo sapiens, UniProt P42226)
# Sequence (P42226 1-847): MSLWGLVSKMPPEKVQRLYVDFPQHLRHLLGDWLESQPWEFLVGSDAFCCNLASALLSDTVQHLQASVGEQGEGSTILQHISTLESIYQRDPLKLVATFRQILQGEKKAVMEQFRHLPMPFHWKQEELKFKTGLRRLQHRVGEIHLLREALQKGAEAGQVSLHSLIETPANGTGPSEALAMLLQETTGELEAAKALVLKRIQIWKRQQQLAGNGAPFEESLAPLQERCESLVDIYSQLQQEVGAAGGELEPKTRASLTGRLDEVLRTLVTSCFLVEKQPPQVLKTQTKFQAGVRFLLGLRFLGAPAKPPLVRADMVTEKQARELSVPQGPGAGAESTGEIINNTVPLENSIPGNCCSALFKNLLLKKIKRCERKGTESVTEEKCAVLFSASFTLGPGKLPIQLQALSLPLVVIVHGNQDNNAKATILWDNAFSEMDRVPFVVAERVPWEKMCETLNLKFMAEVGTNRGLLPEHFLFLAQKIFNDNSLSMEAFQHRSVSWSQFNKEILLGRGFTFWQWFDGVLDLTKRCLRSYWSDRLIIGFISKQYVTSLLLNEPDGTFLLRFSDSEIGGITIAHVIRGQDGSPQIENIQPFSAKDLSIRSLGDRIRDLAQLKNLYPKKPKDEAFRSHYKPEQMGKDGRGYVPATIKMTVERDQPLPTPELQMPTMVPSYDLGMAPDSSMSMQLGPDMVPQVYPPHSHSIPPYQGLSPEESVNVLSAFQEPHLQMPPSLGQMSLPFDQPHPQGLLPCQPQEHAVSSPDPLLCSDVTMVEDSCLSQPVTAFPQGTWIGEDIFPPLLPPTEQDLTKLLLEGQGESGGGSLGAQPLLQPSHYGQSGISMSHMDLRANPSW
# test-method-notes: Fluorescence polarization (FP) binding assay, STAT6
# details: FP competition, 5 nM fluorescein-labeled tracer, 200 nM protein, PBS pH7.4; read-out: Binding STAT6
pKi: −log10 of the molar value.
This section presents compounds with their documented pKi values.

[
  {
    "compound": "CC(=O)N1CC[C@H]2CC[C@@H](C(=O)N3CCOC[C@@H]3c3ccccc3)N2C(=O)[C@@H](NC(=O)c2cc3cc(C(F)(F)P(=O)(O)O)ccc3s2)C1 [Compound 120]",
    "pKi": "5.00 to 6.00"
  },
  {
    "compound": "O=C(N[C@H]1CCC[C@H]2CC[C@@H](C(=O)N3CCc4ccccc4C3)N2C1=O)c1cc2cc(C(F)(F)P(=O)(O)O)ccc2[nH]1 [Compound 363]",
    "pKi": "< 5.00"
  },
  {
    "compound": "CC(=O)N1CC[C@@H]2CN(C(=O)[C@@H]3CCCN3C(=O)[C@@H](NC(=O)c3cc4cc(C(F)(F)P(=O)(O)O)ccc4s3)C(C)(C)C)C[C@@H]21 [Compound 87]",
    "pKi": "< 5.00"
  },
  {
    "compound": "O=C(N[C@@H](Cc1ccncc1)C(=O)N1CCC[C@H]1C(=O)N1CCc2ccccc2C1)c1cc2cc(C(F)(F)P(=O)(O)O)ccc2[nH]1 [Compound 27]",
    "pKi": "5.00 to 6.00"
  },
  {
    "compound": "CCO[C@H]1CCN(C(=O)[C@@H](NC(=O)c2cc3cc(C(F)(F)P(=O)(O)O)ccc3s2)C(C)(C)C)[C@@H]1C(=O)N1CCO[C@H](c2ccccc2)C1 [Compound 308]",
    "pKi": "5.00 to 6.00"
  }
]

Given the compound CC(C)(C)[C@H](NC(=O)/C=C/c1ccc(C(F)(F)P(=O)(O)O)cc1)C(=O)N1CCC[C@H]1c1ncc(Cc2ccccc2)s1 [Compound 26] , what is its reported pKi?
< 5.00
